targetEntity: FMS (Homo sapiens, UniProt P07333)
Sequence (P07333 20-972): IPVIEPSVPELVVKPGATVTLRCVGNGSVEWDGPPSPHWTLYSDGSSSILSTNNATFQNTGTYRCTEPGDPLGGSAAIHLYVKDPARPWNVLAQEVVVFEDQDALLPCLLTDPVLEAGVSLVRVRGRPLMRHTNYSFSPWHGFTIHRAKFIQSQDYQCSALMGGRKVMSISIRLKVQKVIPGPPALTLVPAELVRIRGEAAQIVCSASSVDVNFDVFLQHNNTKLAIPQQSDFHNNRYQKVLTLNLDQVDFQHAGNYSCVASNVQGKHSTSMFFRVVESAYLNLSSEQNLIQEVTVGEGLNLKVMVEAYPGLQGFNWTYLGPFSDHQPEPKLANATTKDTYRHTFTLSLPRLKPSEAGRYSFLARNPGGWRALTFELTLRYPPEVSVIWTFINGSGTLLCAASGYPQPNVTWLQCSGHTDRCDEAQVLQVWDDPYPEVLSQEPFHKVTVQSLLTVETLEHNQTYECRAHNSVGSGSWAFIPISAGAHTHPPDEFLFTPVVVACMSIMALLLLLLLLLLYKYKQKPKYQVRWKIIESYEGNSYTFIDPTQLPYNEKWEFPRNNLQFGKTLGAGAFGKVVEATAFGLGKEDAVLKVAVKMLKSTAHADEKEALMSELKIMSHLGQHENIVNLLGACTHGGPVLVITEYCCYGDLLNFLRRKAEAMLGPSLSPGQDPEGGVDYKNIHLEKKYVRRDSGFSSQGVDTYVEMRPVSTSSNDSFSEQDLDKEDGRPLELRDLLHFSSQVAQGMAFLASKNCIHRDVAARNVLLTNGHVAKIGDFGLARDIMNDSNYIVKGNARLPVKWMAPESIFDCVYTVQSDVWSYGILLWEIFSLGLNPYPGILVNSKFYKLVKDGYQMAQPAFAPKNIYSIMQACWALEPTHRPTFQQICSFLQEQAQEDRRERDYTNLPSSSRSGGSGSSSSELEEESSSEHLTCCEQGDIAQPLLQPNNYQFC
pIC50: −log10 of the molar value.
readoutName: pIC50

# compound, targetEntity, readoutName, experimentalResult
measured = [
    ("CNC(=O)c1cc(-c2ccc(NC(=O)Nc3ccc(N4CCN(C)CC4)c(C(F)(F)F)c3)cc2)nc2cccnc12 [Compound 13b]", "FMS (Homo sapiens, UniProt P07333)", "pIC50", 7.67),
    ("CCN1CCN(c2ccc(NC(=O)Nc3ccc(-c4cc(C(=O)NC)c5ncccc5n4)cc3)cc2C(F)(F)F)CC1 [Compound 13c]", "FMS (Homo sapiens, UniProt P07333)", "pIC50", 7.13),
]

====

Test system: OVCAR-8
procedureDetails: NCI-60 cell line panel: OVCAR-8
Type: cell-based
assayContext: Homo sapiens, Ovarian Cancer
pIC50: −log10 of the molar value.
readoutName: pIC50

# compound, readoutName, experimentalResult
data = [
    ("CCN1CCN(c2ccc(NC(=O)Nc3ccc(-c4cc(C(=O)NC(C)C)c5ncccc5n4)cc3)cc2C(F)(F)F)CC1 [Compound 13f]", "pIC50", 5.24),
    ("CNC(=O)c1cc(-c2ccc(NC(=O)Nc3ccc(N4CCN(C)CC4)c(C(F)(F)F)c3)cc2)nc2cccnc12 [Compound 13b]", "pIC50", 4.76),
    ("CC(C)NC(=O)c1cc(-c2ccc(NC(=O)Nc3ccc(N4CCN(C)CC4)c(C(F)(F)F)c3)cc2)nc2cccnc12 [Compound 13e]", "pIC50", 6.08),
    ("CCN1CCN(c2ccc(NC(=O)Nc3ccc(-c4cc(C(=O)NC)c5ncccc5n4)cc3)cc2C(F)(F)F)CC1 [Compound 13c]", "pIC50", 5.41),
]

====

System: UACC-62
procedureDetails: NCI-60 cell line panel: UACC-62
Type: cell-based
assayContext: Homo sapiens, Melanoma
pIC50: −log10 of the molar value.
Items are presented alongside their recorded pIC50.

# molecule, pIC50
data = [
    ("CCN1CCN(c2ccc(NC(=O)Nc3ccc(-c4cc(C(=O)NC)c5ncccc5n4)cc3)cc2C(F)(F)F)CC1 [Compound 13c]", 5.51),
    ("CCN1CCN(c2ccc(NC(=O)Nc3ccc(-c4cc(C(=O)NC(C)C)c5ncccc5n4)cc3)cc2C(F)(F)F)CC1 [Compound 13f]", 5.40),
    ("CC(C)NC(=O)c1cc(-c2ccc(NC(=O)Nc3ccc(N4CCN(C)CC4)c(C(F)(F)F)c3)cc2)nc2cccnc12 [Compound 13e]", 6.18),
    ("CNC(=O)c1cc(-c2ccc(NC(=O)Nc3ccc(N4CCN(C)CC4)c(C(F)(F)F)c3)cc2)nc2cccnc12 [Compound 13b]", 4.74),
]

====

Tested on: NCI-H23
procedureDetails: NCI-60 cell line panel: NCI-H23
Format: cell-based
assayContext: Homo sapiens, Non-Small Cell Lung Cancer
readoutName: IC50 (nM)

# compound, readoutName, unitsText, experimentalResult
data = [
    ("CCN1CCN(c2ccc(NC(=O)Nc3ccc(-c4cc(C(=O)NC(C)C)c5ncccc5n4)cc3)cc2C(F)(F)F)CC1 [Compound 13f]", "IC50", "nM", 2050),
    ("CC(C)NC(=O)c1cc(-c2ccc(NC(=O)Nc3ccc(N4CCN(C)CC4)c(C(F)(F)F)c3)cc2)nc2cccnc12 [Compound 13e]", "IC50", "nM", 730),
    ("CCN1CCN(c2ccc(NC(=O)Nc3ccc(-c4cc(C(=O)NC)c5ncccc5n4)cc3)cc2C(F)(F)F)CC1 [Compound 13c]", "IC50", "nM", 2680),
    ("CNC(=O)c1cc(Oc2ccc(NC(=O)Nc3ccc(Cl)c(C(F)(F)F)c3)cc2)ccn1 [Sorafenib, reference compound]", "IC50", "nM", 2000),
]

====

Test system: BT-549
procedureDetails: NCI-60 cell line panel: BT-549
Type: cell-based
assayContext: Homo sapiens, Breast Cancer

# compound, unitsText, IC50
measured = [
    ("CCN1CCN(c2ccc(NC(=O)Nc3ccc(-c4cc(C(=O)NC)c5ncccc5n4)cc3)cc2C(F)(F)F)CC1 [Compound 13c]", "µM", 2.78),
    ("CC(C)NC(=O)c1cc(-c2ccc(NC(=O)Nc3ccc(N4CCN(C)CC4)c(C(F)(F)F)c3)cc2)nc2cccnc12 [Compound 13e]", "µM", 2.1),
    ("CCN1CCN(c2ccc(NC(=O)Nc3ccc(-c4cc(C(=O)NC(C)C)c5ncccc5n4)cc3)cc2C(F)(F)F)CC1 [Compound 13f]", "µM", 4.83),
    ("CNC(=O)c1cc(-c2ccc(NC(=O)Nc3ccc(N4CCN(C)CC4)c(C(F)(F)F)c3)cc2)nc2cccnc12 [Compound 13b]", "µM", 16.5),
]

====

Tested on: 786-0
procedureDetails: NCI-60 cell line panel: 786-0
Assay type: cell-based
assayContext: Homo sapiens, Renal Cancer
pIC50: −log10 of the molar value.

# compound, pIC50
data = [
    ("CCN1CCN(c2ccc(NC(=O)Nc3ccc(-c4cc(C(=O)NC(C)C)c5ncccc5n4)cc3)cc2C(F)(F)F)CC1 [Compound 13f]", 6.30),
    ("CC(C)NC(=O)c1cc(-c2ccc(NC(=O)Nc3ccc(N4CCN(C)CC4)c(C(F)(F)F)c3)cc2)nc2cccnc12 [Compound 13e]", 6.28),
    ("CCN1CCN(c2ccc(NC(=O)Nc3ccc(-c4cc(C(=O)NC)c5ncccc5n4)cc3)cc2C(F)(F)F)CC1 [Compound 13c]", 6.52),
    ("CNC(=O)c1cc(-c2ccc(NC(=O)Nc3ccc(N4CCN(C)CC4)c(C(F)(F)F)c3)cc2)nc2cccnc12 [Compound 13b]", 5.74),
]

====

System: T-47D
procedureDetails: NCI-60 cell line panel: T-47D
Format: cell-based
assayContext: Homo sapiens, T47D, Breast Cancer
pIC50: −log10 of the molar value.
compounds and their reported pIC50
readoutName: pIC50

# compound, experimentalResult
data = [
    ("CCN1CCN(c2ccc(NC(=O)Nc3ccc(-c4cc(C(=O)NC(C)C)c5ncccc5n4)cc3)cc2C(F)(F)F)CC1 [Compound 13f]", 5.71),
    ("CNC(=O)c1cc(-c2ccc(NC(=O)Nc3ccc(N4CCN(C)CC4)c(C(F)(F)F)c3)cc2)nc2cccnc12 [Compound 13b]", 4.77),
    ("CCN1CCN(c2ccc(NC(=O)Nc3ccc(-c4cc(C(=O)NC)c5ncccc5n4)cc3)cc2C(F)(F)F)CC1 [Compound 13c]", 5.43),
    ("CC(C)NC(=O)c1cc(-c2ccc(NC(=O)Nc3ccc(N4CCN(C)CC4)c(C(F)(F)F)c3)cc2)nc2cccnc12 [Compound 13e]", 5.12),
]

====

Tested on: SNB-19
procedureDetails: NCI-60 cell line panel: SNB-19
Format: cell-based
assayContext: CNS Cancer, total growth inhibition
readoutName: log10 TGI (log10 of the value in µM)

# compound, log10 TGI
records = [
    ("CNC(=O)c1cc(Oc2ccc(NC(=O)Nc3ccc(Cl)c(C(F)(F)F)c3)cc2)ccn1 [Sorafenib, reference compound]", 0.60),
    ("CC(C)NC(=O)c1cc(-c2ccc(NC(=O)Nc3ccc(N4CCN(C)CC4)c(C(F)(F)F)c3)cc2)nc2cccnc12 [Compound 13e]", 0.19),
    ("CNC(=O)c1cc(-c2ccc(NC(=O)Nc3ccc(N4CCN(C)CC4)c(C(F)(F)F)c3)cc2)nc2cccnc12 [Compound 13b]", 1.52),
    ("CCN1CCN(c2ccc(NC(=O)Nc3ccc(-c4cc(C(=O)NC)c5ncccc5n4)cc3)cc2C(F)(F)F)CC1 [Compound 13c]", 0.74),
    ("CCN1CCN(c2ccc(NC(=O)Nc3ccc(-c4cc(C(=O)NC(C)C)c5ncccc5n4)cc3)cc2C(F)(F)F)CC1 [Compound 13f]", 0.96),
]

====

compounds and their reported TGI
System: HOP-92
procedureDetails: NCI-60 cell line panel: HOP-92
Assay type: cell-based
Design: unit not given here
assayContext: Non-Small Cell Lung Cancer, total growth inhibition

# compound, TGI
data = [
    ("CNC(=O)c1cc(-c2ccc(NC(=O)Nc3ccc(N4CCN(C)CC4)c(C(F)(F)F)c3)cc2)nc2cccnc12 [Compound 13b]", 100),
    ("CCN1CCN(c2ccc(NC(=O)Nc3ccc(-c4cc(C(=O)NC)c5ncccc5n4)cc3)cc2C(F)(F)F)CC1 [Compound 13c]", 5.67),
    ("CCN1CCN(c2ccc(NC(=O)Nc3ccc(-c4cc(C(=O)NC(C)C)c5ncccc5n4)cc3)cc2C(F)(F)F)CC1 [Compound 13f]", 8.29),
    ("CC(C)NC(=O)c1cc(-c2ccc(NC(=O)Nc3ccc(N4CCN(C)CC4)c(C(F)(F)F)c3)cc2)nc2cccnc12 [Compound 13e]", 1.33),
]

====

System: EKVX
procedureDetails: NCI-60 cell line panel: EKVX
Format: cell-based
assayContext: Non-Small Cell Lung Cancer, total growth inhibition, in µM (unit assumed)
Description: It was carried out at the NCI, Bethesda, MD, USA, utilizing their standard protocol.
readoutName: TGI

# compound, experimentalResult
records = [
    ("CNC(=O)c1cc(-c2ccc(NC(=O)Nc3ccc(N4CCN(C)CC4)c(C(F)(F)F)c3)cc2)nc2cccnc12 [Compound 13b]", 33.9),
    ("CC(C)NC(=O)c1cc(-c2ccc(NC(=O)Nc3ccc(N4CCN(C)CC4)c(C(F)(F)F)c3)cc2)nc2cccnc12 [Compound 13e]", 1.49),
    ("CNC(=O)c1cc(Oc2ccc(NC(=O)Nc3ccc(Cl)c(C(F)(F)F)c3)cc2)ccn1 [Sorafenib, reference compound]", 19.95),
    ("CCN1CCN(c2ccc(NC(=O)Nc3ccc(-c4cc(C(=O)NC(C)C)c5ncccc5n4)cc3)cc2C(F)(F)F)CC1 [Compound 13f]", 5.82),
]
